- ASSAY_TARGET: Thyrotropin-releasing hormone receptor (Homo sapiens)
- ASSAY_EXPLANATION: qHTS assay to identify small molecule agonists of the thyrotropin-releasing hormone receptor (TRHR) signaling pathway (AID 1346891);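 also: HEK293 cells expressing TRHR with calcium dye readout; % is scaled to controls: 0 for no effect and ±100 for the full control effect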
- CONDITION_DESCRIPTION: TRHR-HEK293 calcium fluorescence, agonist mode; series mostly up to 57.6 µM
The source made the active and inactive calls. Calls follow the shape of the full dose curve.
MEASURED_METRIC: activation

Record excerpt, results attached:
- MOLECULE: "O[C@@H](COc1cccc2ncccc12)CN1CCN(C2c3ccccc3[C@@H]3[C@H](c4ccccc42)C3(F)F)CC1 (stereo not given in full)"
  ASSAY_TARGET: "Thyrotropin-releasing hormone receptor (Homo sapiens)"
  MEASURED_METRIC: "activation"
  MEASUREMENT: "inactive"
- MOLECULE: "CCc1cc(C2=C(C(=O)O)N(c3ccccc3C(F)(F)F)S(=O)(=O)c3ccccc32)cc2c1OCO2"
  ASSAY_TARGET: "Thyrotropin-releasing hormone receptor (Homo sapiens)"
  MEASURED_METRIC: "activation"
  MEASUREMENT: "inactive"
- MOLECULE: "CCCCCCCCCc1ccc(OCCOCCO)cc1"
  ASSAY_TARGET: "Thyrotropin-releasing hormone receptor (Homo sapiens)"
  MEASURED_METRIC: "activation"
  MEASUREMENT: "inactive"
- MOLECULE: "COC(=O)c1ccc(I)cc1S(=O)(=O)NC(=O)Nc1nc(C)nc(OC)n1"
  ASSAY_TARGET: "Thyrotropin-releasing hormone receptor (Homo sapiens)"
  MEASURED_METRIC: "activation"
  MEASUREMENT: "inactive"
- MOLECULE: "OC[C@H]1O[C@@H](OCCc2ccc(O)cc2)[C@H](O)[C@@H](O)[C@@H]1O"
  ASSAY_TARGET: "Thyrotropin-releasing hormone receptor (Homo sapiens)"
  MEASURED_METRIC: "activation"
  MEASUREMENT: "inactive"

stdin: // Input: `O=S(c1cc(Cl)cc(Cl)c1O)c1cc(Cl)cc(Cl)c1O` . Output its activation only.
stdout: inactive

stdin: Name the recorded activation of the item `CC(C)C[C@H]1C(=O)N2CCC[C@H]2[C@]2(O)O[C@](NC(=O)[C@@H]3C=C4c5cccc6[nH]c(Br)c(c56)C[C@H]4N(C)C3)(C(C)C)C(=O)N12` in your answer.
stdout: inactive

stdin: Note down activation recorded for `Cc1ccccc1S(=O)(=O)O`
stdout: inactive

stdin: Indicate the recorded activation value for this molecule: CC(CSC(=O)c1ccccc1)C(=O)N1C[C@@H](Sc2ccccc2)C[C@H]1C(=O)O (stereo not given in full)
stdout: -0.201% [at 11.8 µM] (inactive)

stdin: Return activation for the following molecule: `CN1C[C@H]2c3ccccc3Oc3ccc(Cl)cc3[C@@H]2C1`
stdout: inactive

stdin: Given the molecule `O=C(CS)Nc1ccccc1` , write its reported activation.
stdout: inactive

stdin: Give me measured activation, please, for this molecule: `CCOC(=O)NCCOc1ccc(Oc2ccccc2)cc1`
stdout: inactive

stdin: Give the value of activation reported for the following: `CN(C)C(=O)NC1(c2ccccc2)CCN(CC[C@@]2(c3ccc(F)c(F)c3)CN(C(=O)c3ccccc3)CCO2)CC1`
stdout: inactive

stdin: Give a short answer stating reported activation for `c1cc(CCCc2ccncc2)ccn1` .
stdout: inactive

stdin: Let me know recorded activation for `Nc1cccc([N+](=O)[O-])c1` , thanks.
stdout: inactive
